Reference for the values: PubChem BioAssay

Experiment: small-molecule microarray binders of probe aWnt5a, primary screen, biochemical, biotinylated probe, 635/667 nm fluorescence (AID 1113);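 further: score merges 667 nm fluorescence intensity with signal-to-noise per printed feature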
Details: higher = more signal

smiles structure | composite z-score
CCN1C(=O)[C@H]2[C@H]3[C@H](O)[C@H](O)CC(=O)[C@@H]3CC[C@H]2C1=O | -0.192
CC(C)(C)N1C(=O)[C@H]2[C@H]3[C@H](O)[C@H](O)CC(=NO[C@@H]4O[C@H](CO)[C@@H](O)[C@H](O)[C@H]4O)[C@H]3CC[C@H]2C1=O | -0.0337
COc1cccc([C@H]2Oc3ccc(OC)cc3C(=NOC[C@@H](O)COCc3ccco3)[C@@H]2O)c1 | -0.278
O=C(NN=C1C[C@@H](O)[C@@H](O)[C@@H]2[C@@H]3C(=O)N(C4CCCCC4)C(=O)[C@@H]3CC[C@H]12)OCc1ccccc1 | -0.0051

----------
Assay: basal RPMI8226 mitochondrial membrane potential changes, profiling panel, cell-based, JC-1 fluorescence, 24 h, 100 nL compound (AID 1169); further: test concentration not given here
Conditions: RPMI8226 myeloma, JC-1 mitochondrial potential fluorescence, higher = more signal

molecule | z-score
CCCNC(=O)OC[C@H]1O[C@H](CCON=C(C)CCN2CCc3nc(CC)c(CC)cc3C2)C=C[C@@H]1Oc1ccc(OC)cc1 | -0.0505
CCOC(=O)[C@H](Cc1ccccc1)NC(=O)CCC1CC(OC(=O)NCCc2ccc(F)cc2)CC2(CCCC(COC(=O)NCCCN3CCCC3=O)O2)O1 (some centres not stated) | 0.437
CCOC(=O)[C@H](CC(C)C)NC(=O)CCC1CC(OC(=O)NCc2cccc3ccccc23)CC2(CCCC(COC(=O)NCCc3ccc(Cl)cc3)O2)O1 (some centres not stated) | -0.436
O=C1C=C[C@@H](O)[C@@H]2[C@@H]3C(=O)N(C[C@@H]4CCCO4)C(=O)[C@@H]3CC[C@@H]12 | -0.643
C#CCCCON=C1[C@H]2CCn3c(=O)n(-c4ccccc4)c(=O)n3[C@H]2[C@H](O)[C@@H]2O[C@H]12 | 1.03
CCOC(=O)[C@H](Cc1ccccc1)NC(=O)CCC1CC(OC(=O)NCCc2ccc(F)cc2)CC2(CCCC(COC(=O)NCCc3ccc(Cl)cc3)O2)O1 (some centres not stated) | 0.158
COc1cccc([C@H]2Oc3ccc(OC)cc3C(=NO[C@@H]3O[C@H](COC(C)=O)[C@@H](OC(C)=O)[C@H](OC(C)=O)[C@H]3OC(C)=O)[C@@H]2O)c1 | -0.0523

----------
Assay: binders of probe aFGF2 on microarray, primary screen, stem cell growth factor project, biochemical, small-molecule microarray, fluorescence 635/667 (AID 1067);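 further: measures binding of biotinylated aFGF2 protein to printed compounds on slides; z-score merges feature fluorescence and signal-to-noise across triplicate slides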
Conditions: higher = more signal
Tag: Fulfilled if measured composite z-score is not below -0.1, Not fulfilled if it is.

compound | class assignment
CO[C@H]1COC(=O)[C@@H](C)COC(=O)[C@H](C)NC(=O)CC=C[C@H]1C | Fulfilled
C[C@@H]1CC[C@H]2C(=O)O[C@@H](COc3ccc(C(C)(C)C)cc3)CN2[C@@H]1c1ccc(Br)cc1 | Not fulfilled
CC(C)(C)N1C(=O)[C@H]2[C@H]3[C@H](O)[C@H](O)CC(=O)[C@H]3CC[C@H]2C1=O | Not fulfilled
CCOC(=O)[C@H](Cc1ccccc1)NC(=O)CCC1CC(OC(=O)NCCc2ccc(F)cc2)CC2(CCCC(COC(=O)NCc3ccccc3)O2)O1 (stereo not given in full) | Fulfilled
C=CC[C@@H]1C=C[C@H](ON=C[C@@H](C)[C@H](OCc2ccccc2)C(C)C)[C@@H](CO)O1 | Fulfilled
Cn1c(=O)n2n(c1=O)[C@H]1[C@H](O)[C@@H]3O[C@@H]3C(=O)[C@H]1CC2 | Not fulfilled
CCOC(=O)[C@H](Cc1ccccc1)NC(=O)CCC1CC(OC(=O)NCc2cccc3ccccc23)CC2(CCCC(COC(=O)NCc3ccccc3)O2)O1 (stereo not given in full) | Not fulfilled
C[C@H]1CC[C@H]2C(=O)OC(CO)CN2[C@@H]1c1ccc(Br)cc1 (stereo not given in full) | Not fulfilled
CCOC(=O)[C@H](CC(C)C)NC(=O)CCC1CC(OC(=O)NCc2cccc3ccccc23)CC2(CCCC(COC(=O)NCc3ccncc3)O2)O1 (stereo not given in full) | Not fulfilled
O=C1C[C@@H](O)[C@@H](O)[C@@H]2[C@@H]3C(=O)N(C[C@@H]4CCCO4)C(=O)[C@@H]3CC[C@H]12 | Fulfilled
CC(C)CCN1CCc2nc(COc3ccccc3)c3c(c2C1)CO[C@@H](C)C3 | Fulfilled
CCOC(=O)[C@H](Cc1ccccc1)NC(=O)CCC1CC(OC(=O)NCc2ccc3c(c2)OCO3)CC2(CCCC(COC(=O)NCCc3ccccc3OC)O2)O1 (stereo not given in full) | Not fulfilled
CC(=O)OC[C@H]1OC(ON=CC[C@@H]2C=C[C@H](OC(C)=O)[C@@H](COC(C)=O)O2)[C@H](OC(C)=O)[C@@H](OC(C)=O)[C@@H]1OC(C)=O (stereo not given in full) | Fulfilled
CO[C@@H]1COC(=O)[C@@H](C)NC(=O)CC=C[C@@H](C)[C@H](NS(=O)(=O)c2ccc(C)cc2)COC(=O)[C@H](C)NC(=O)CC=C[C@H]1C | Not fulfilled
CC(=O)OC[C@H]1O[C@H](CC=NO[C@H](C)c2cn([C@H](CO)Cc3ccccc3)nn2)C=C[C@@H]1OC(C)=O | Fulfilled
